B1: POU domain, class 3, transcription factor 2, residues 356 to 411; numbered along this chain, P20265 (parent)
chain: KKRTSIEVSVKGALESHFLKCPKPSAQEITSLADSLQLEKEVVRVWFCNRRQKEKR

- Variants of: B1
- test: abundance fitness (aPCA) (normalised: wild type 0, dead -1); higher = more abundant; growth selection in yeast, the domain comes from the species named
- condition info: Homo sapiens
For each entry below, report its abundance fitness value.

Tell me measured abundance fitness for `R50P` please.
-0.982

Tell me measured abundance fitness for `L32F` please.
-0.341

Tell me measured abundance fitness for `H17W` please.
-0.02

Tell me measured abundance fitness for `A26V` please.
-0.049

Tell me measured abundance fitness for `V10P` please.
-0.554

Tell me measured abundance fitness for `S16C` please.
-0.226

Tell me measured abundance fitness for `L38F` please.
-0.788

Tell me measured abundance fitness for `A33K` please.
-0.631

Tell me measured abundance fitness for `S35F` please.
-0.22

Tell me measured abundance fitness for `Q52K` please.
-0.001

Tell me measured abundance fitness for `P22T` please.
-0.313

Tell me measured abundance fitness for `A26R` please.
-0.13

Tell me measured abundance fitness for `G12Q` please.
-0.053

Tell me measured abundance fitness for `N49M` please.
-0.197

Tell me measured abundance fitness for `I6G` please.
-0.119

Tell me measured abundance fitness for `K2V` please.
-0.119

Tell me measured abundance fitness for `Q27V` please.
-0.061

Tell me measured abundance fitness for `C21G` please.
-0.521

Tell me measured abundance fitness for `Q52V` please.
-0.131

Tell me measured abundance fitness for `A33C` please.
-0.428

Tell me measured abundance fitness for `V8F` please.
0.065

Tell me measured abundance fitness for `L36K` please.
-0.868

Tell me measured abundance fitness for `K20S` please.
-0.248

Tell me measured abundance fitness for `K40E` please.
0.096

Tell me measured abundance fitness for `Q27P` please.
-0.21

Tell me measured abundance fitness for `A13Q` please.
0.011

Tell me measured abundance fitness for `S16H` please.
-0.21

Tell me measured abundance fitness for `A33Y` please.
-0.963

Tell me measured abundance fitness for `S35L` please.
-0.065

Tell me measured abundance fitness for `K1A` please.
-0.237

Tell me measured abundance fitness for `K1D` please.
0.082

Tell me measured abundance fitness for `T4L` please.
-0.199

Tell me measured abundance fitness for `A26N` please.
-0.097

Tell me measured abundance fitness for `P22H` please.
-0.189

Tell me measured abundance fitness for `C21R` please.
-0.419

Tell me measured abundance fitness for `P22K` please.
-0.348

Tell me measured abundance fitness for `S35D` please.
0.091

Tell me measured abundance fitness for `P24T` please.
-0.986

Tell me measured abundance fitness for `E54G` please.
-0.454

Tell me measured abundance fitness for `E54R` please.
-0.472

Tell me measured abundance fitness for `S5W` please.
-0.313

Tell me measured abundance fitness for `L32R` please.
-0.911

Tell me measured abundance fitness for `F47S` please.
-0.871

Tell me measured abundance fitness for `S25L` please.
-0.423

Tell me measured abundance fitness for `D34R` please.
0.244

Tell me measured abundance fitness for `S16Y` please.
-0.382
